B1: E3 ubiquitin-protein ligase NEDD4, residues 836 to 881; numbered along this chain, P46934 (parent)
chain: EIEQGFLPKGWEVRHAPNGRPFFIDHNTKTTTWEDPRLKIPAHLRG

Variants of: B1
MEASUREMENT PROTOCOL: abundance fitness (aPCA) (normalised: wild type 0, dead -1); higher = more abundant; growth selection in yeast, the domain comes from the species named
SETTINGS: Homo sapiens
Definition: the class of an entry is the range in low = under -0.6, medium = from -0.6 up to -0.3, high = -0.3 and over that contains its abundance fitness.

{"MUTATION LABEL": "F23M", "CATEGORY": "low"}
{"MUTATION LABEL": "G19W", "CATEGORY": "low"}
{"MUTATION LABEL": "G19N", "CATEGORY": "medium"}
{"MUTATION LABEL": "L38K", "CATEGORY": "high"}
{"MUTATION LABEL": "N18E", "CATEGORY": "high"}

Hello team, could you let me know which band the following variant falls into: `H26N`
medium

Hello team, could you let me know which band the following variant falls into: `R20N`
high

Hello team, could you let me know which band the following variant falls into: `G19M`
low

Hello team, could you let me know which band the following variant falls into: `W33L`
medium

Hello team, could you let me know which band the following variant falls into: `D25F`
low
